experiment: clinical; details: human, in vivo, iv, Vdss
observable: Vd (L/kg)
Answers are plain numbers, in L/kg.

The cases that follow already have their Vd on record.
CCN1CC(CCN2CCOCC2)C(c2ccccc2)(c2ccccc2)C1=O (configuration not stated) [DOXAPRAM] = 1.2
CC(=O)[C@H]1CC[C@H]2[C@@H]3CC[C@@H]4C[C@H](O)CC[C@]4(C)[C@H]3CC[C@]12C [ELTANOLONE] = 2
C#C[C@]1(OS(=O)(=O)O)CC[C@H]2[C@@H]3CCc4cc(O)ccc4[C@H]3CC[C@@]21C = 0.61

Hi team, please reply with Vd for each item in this list.
1. C[C@@H](CN1CC(=O)NC(=O)C1)N1CC(=O)NC(=O)C1 [DEXRAZOXANE]
2. CC[C@H]1OC(=O)[C@H](C)[C@@H](O[C@H]2C[C@@](C)(OC)[C@@H](O)[C@H](C)O2)[C@H](C)[C@@H](O[C@@H]2O[C@H](C)C[C@H](N(C)C)[C@H]2O)[C@](C)(OC)C[C@@H](C)C(=O)[C@H](C)[C@@H](O)[C@]1(C)O [CLARITHROMYCIN]
3. CCOC(=O)C1=C(C)NC(C)=C(C(=O)OC)C1c1cccc([N+](=O)[O-])c1 (configuration not stated) [NITRENDIPINE]
4. O=C1CN=C(c2ccccc2)c2cc([N+](=O)[O-])ccc2N1 [NITRAZEPAM]

## Output
1. 0.55
2. 1.5
3. 6.1
4. 1.7

----------
settings: human, in vivo, iv
observable: t1/2
Write the figure, then the unit, nothing else.

The cases that follow already have their t1/2 on record.
O=[N+]([O-])O[C@@H]1CO[C@H]2[C@@H]1OC[C@@H]2O (stereo in doubt; form 1) [ISOSORBIDE MONONITRATE] = 1.9 h
Clc1cccc(Cl)c1N=C1NCCN1 = 7.6 h
COc1cc2c(c(OC)c1OC)-c1ccc(OC)c(=O)cc1[C@@H](NC(C)=O)CC2 = 58 h

Hi team, please reply with t1/2 for each item in this list.
1. CCC1=C[C@@H]2CN(C1)Cc1c([nH]c3ccccc13)[C@@](C(=O)OC)(c1cc3c(cc1OC)N(C)[C@H]1[C@@](O)(C(=O)OC)[C@H](OC(C)=O)[C@]4(CC)C=CCN5CC[C@]31[C@@H]54)C2 (stereo in doubt; form 2)
2. NCCC(O)(P(=O)(O)O)P(=O)(O)O

## Output
1: 26 h; 2: 32 h

----------
experiment: clinical; details: human, in vivo, iv
Assign MRT to each entry below.
Numbers only, in h.

COc1cc2nc(N3CCN(C(=O)C4COc5ccccc5O4)CC3)nc(N)c2cc1OC (configuration not stated) = 14

## Input Would you kindly share the measured MRT for C/C=C/C[C@@H](C)C(=O)[C@H]1C(=O)N[C@@H](C(C)C)C(=O)N(C)CC(=O)N(C)[C@@H](CC(C)C)C(=O)N[C@@H](C(C)C)C(=O)N(C)[C@@H](CC(C)C)C(=O)N[C@@H](C)C(=O)N[C@H](C)C(=O)N(C)[C@@H](CC(C)C)C(=O)N(C)[C@@H](CC(C)C)C(=O)N(C)[C@@H](C(C)C)C(=O)N1C ?
## Output 12

----------
Assign log10 MRT to each entry below.
test: clinical; settings: human, in vivo, iv
Log10 applied to MRT; unit prior to transform: h.

The cases that follow already have their log10 MRT on record.
CO[C@H]1/C=C/O[C@@]2(C)Oc3c(C)c(O)c4c(O)c(c(/C=N/N5CCN(C)CC5)c(O)c4c3C2=O)NC(=O)/C(C)=C\C=C\[C@H](C)[C@H](O)[C@@H](C)[C@@H](O)[C@@H](C)[C@H](OC(C)=O)[C@@H]1C = 0.66
C=CC[N+]12CC[C@@]34c5ccccc5N5/C=C6/[C@H]7C[C@H]8[C@@]9(CC[N@@+]8(CC=C)C/C7=C/CO)c7ccccc7N(/C=C(/[C@@H](C[C@@H]31)/C(=C\CO)C2)[C@H]54)[C@@H]69 (stereo not given in full) = 0.61
Nc1nc(/C(=N/O)C(=O)N[C@@H]2C(=O)N3C(C(=O)O)=C(/C=C4\CCN([C@@H]5CCNC5)C4=O)CS[C@H]23)ns1 = 0.48
CCCC1O[C@@H]2C[C@H]3[C@@H]4CCC5=CC(=O)C=C[C@]5(C)[C@H]4[C@@H](O)C[C@]3(C)[C@]2(C(=O)CO)O1 (stereo not given in full) [BUDESONIDE] = 0.51
CN1[C@@H]2C[C@@H](OC(=O)[C@H](CO)c3ccccc3)C[C@H]1[C@@H]1O[C@@H]12 = 0.51
CN(C)Cc1nnc2n1-c1ccc(Cl)cc1C(c1ccccc1)=NC2 = 0.41

Hi team, please reply with log10 MRT for each item in this list.
1. C#C[C@]1(O)CC[C@H]2[C@@H]3CCC4=CC(=O)CC[C@@H]4[C@H]3CC[C@@]21CC
2. O=C(NCCNCC(O)COc1ccc(O)cc1)N1CCOCC1 (stereo not given)
3. CCOc1ccc2ccccc2c1C(=O)N[C@@H]1C(=O)N2[C@@H]1SC(C)(C)[C@@H]2C(=O)O
4. NS(=O)(=O)c1cc(C(=O)O)cc(N2CCCC2)c1Oc1ccccc1 [PIRETANIDE]
5. C[C@@H]1C(=O)O[C@H]2[C@H](O)[C@@]34[C@H]5C[C@@H](C(C)(C)C)[C@]36[C@@H](OC(=O)[C@@H]6O)O[C@@]4(C(=O)O5)[C@@]12O [GINKOLIDE B]
6. O=[N+]([O-])O[C@H]1CO[C@H]2[C@@H]1OC[C@H]2O[N+](=O)[O-] [ISOSORBIDE DINITRATE]
7. C[C@H](O)C(=O)Nc1c(I)c(C(=O)NC(CO)CO)c(I)c(C(=O)NC(CO)CO)c1I

## Output
[1.15, 0.56, 0.04, -0.04, 0.82, 0.00, 0.40]
